tgt: hAChE (Homo sapiens, UniProt P22303)
Sequence (P22303 32-614): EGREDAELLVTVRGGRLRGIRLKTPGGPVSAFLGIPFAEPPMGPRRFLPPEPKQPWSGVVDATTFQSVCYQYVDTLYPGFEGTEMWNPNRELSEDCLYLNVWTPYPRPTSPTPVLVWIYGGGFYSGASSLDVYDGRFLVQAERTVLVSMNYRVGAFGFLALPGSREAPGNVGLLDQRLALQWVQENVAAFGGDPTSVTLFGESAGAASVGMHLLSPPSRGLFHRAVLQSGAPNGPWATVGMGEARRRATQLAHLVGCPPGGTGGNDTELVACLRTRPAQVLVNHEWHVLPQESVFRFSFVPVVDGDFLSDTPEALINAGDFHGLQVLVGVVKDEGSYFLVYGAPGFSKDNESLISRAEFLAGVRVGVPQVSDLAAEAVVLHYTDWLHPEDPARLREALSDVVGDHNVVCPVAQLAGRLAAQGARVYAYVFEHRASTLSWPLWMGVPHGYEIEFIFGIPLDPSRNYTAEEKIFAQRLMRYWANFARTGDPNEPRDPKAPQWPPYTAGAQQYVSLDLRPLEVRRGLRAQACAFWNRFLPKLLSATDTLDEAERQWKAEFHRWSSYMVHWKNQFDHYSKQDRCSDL
assay.procedure: Time-dependent (stopped time) kinetic study of hAChE inhibition
particulars: 37 °C, double reciprocal plot of kobs vs inhibitor concentration, read-out: equilibrium constant Kc
readout.type: Kd (µM)
Use µM as the unit, but write only the number.

### Prompt Query: Kd; subject: `CCN1/C(=C/C(C)=O)Sc2ccc(OC(=O)OCCOCCNC(=O)c3cc4c(OC(=O)N(C)C)cccc4[n+](C)c3)cc21.COS(=O)(=O)[O-]`
### Response 0.23

====

tgt: hBuChE (Homo sapiens)
Sequence (P06276 29-602): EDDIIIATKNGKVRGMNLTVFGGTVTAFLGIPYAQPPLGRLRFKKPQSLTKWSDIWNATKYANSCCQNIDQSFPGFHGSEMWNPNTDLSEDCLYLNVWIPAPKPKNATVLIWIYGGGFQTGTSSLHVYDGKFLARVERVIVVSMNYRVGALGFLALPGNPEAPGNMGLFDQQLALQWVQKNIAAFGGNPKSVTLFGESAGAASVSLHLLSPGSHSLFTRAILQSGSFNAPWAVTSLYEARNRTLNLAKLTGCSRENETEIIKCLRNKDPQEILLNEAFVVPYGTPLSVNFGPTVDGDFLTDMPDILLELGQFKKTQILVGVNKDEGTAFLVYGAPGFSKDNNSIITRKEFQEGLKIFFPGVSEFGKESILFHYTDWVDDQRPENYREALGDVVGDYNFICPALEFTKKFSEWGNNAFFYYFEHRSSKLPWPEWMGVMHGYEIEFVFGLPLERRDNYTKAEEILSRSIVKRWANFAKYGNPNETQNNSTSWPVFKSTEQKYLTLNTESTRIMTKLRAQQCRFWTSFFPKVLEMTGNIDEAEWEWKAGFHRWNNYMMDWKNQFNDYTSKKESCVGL
assay.procedure: Time-dependent (stopped time) kinetic study of hBuChE inhibition
particulars: hBChE, 37 °C, double reciprocal plot of kobs vs inhibitor concentration; read-out: equilibrium constant Kc
readout.type: pKd
Scale for pKd: -log10 of concentration given in mol/L; no unit attached.

### Prompt Query: pKd; subject: `CCN1/C(=C/C(C)=O)Sc2ccc(OC(=O)OCCOCCNC(=O)c3cc4c(OC(=O)N(C)C)cccc4[n+](C)c3)cc21.COS(=O)(=O)[O-]`
### Response 6.18

====

tgt: hBuChE (Homo sapiens)
Construct: purchased Aldrich
assay.procedure: biochemical
Assay type: biochemical
particulars: mean value of duplicate; 5 min preincubation; read-out: IC50 hBuChE
Entries annotated with measured IC50
Use µM as the unit, but write only the number.

>>> df
                               smiles_entry  measure_unit  endpoint_value
0  CCN1/C(=C/C(C)=O)Sc2ccc(OC(=O)OCCOCCNC(=O)c3cc4ccccc4[n+](C)c3)cc21.COS(=O)(=O)[O-]            µM             6.4

Turning to the following molecule.
### Prompt Recall the recorded IC50 for `CCN1/C(=C/C(C)=O)Sc2ccc(OC(=O)OCCOCCNC(=O)c3cc4c(OC(=O)N(C)C)cccc4[n+](C)c3)cc21.COS(=O)(=O)[O-]` with hBuChE (Homo sapiens) and state it.
### Response 0.482

====

assay.procedure: PAMPA-BBB permeability assay
Assay type: in vitro ADME
particulars: PAMPA; pH 7.4, 4 h, room temperature; read-out: Pe (PAMPA BBB, passive diffusion)
readout.type: Papp at 4 h (×10⁻⁶ cm/s)
Use ×10⁻⁶ cm/s as the unit, but write only the number.

### Prompt Query: Papp at 4 h; subject: `CCN1/C(=C/C(C)=O)Sc2ccc(OC(=O)OCCOCCNC(=O)C3=CN(C)c4cccc(OC(=O)N(C)C)c4C3)cc21`
### Response 2.41

====

tgt: hAChE (Homo sapiens, UniProt P22303)
Construct: purchased Aldrich
assay.procedure: biochemical
Format: biochemical
particulars: mean value of duplicate; 5 min preincubation; read-out: IC50 hAChE
Entries annotated with measured IC50

Would you please look over these solved cases?
                                   compound  endpoint_value
0  CCN1/C(=C/C(C)=O)Sc2ccc(OC(=O)OCCOCCNC(=O)c3cc4c(OC(=O)N(C)C)cccc4[n+](C)c3)cc21.COS(=O)(=O)[O-]       0.0814 µM
1  CCN1/C(=C/C(C)=O)Sc2ccc(OC(=O)OCCOCCNC(=O)C3=CN(C)c4ccccc4C3)cc21         > 10 µM

### Prompt Query: IC50; subject: `CCN1/C(=C/C(C)=O)Sc2ccc(OC(=O)OCCOCCNC(=O)c3cc4ccccc4[n+](C)c3)cc21.COS(=O)(=O)[O-]`
### Response > 10 µM

### Prompt Query: IC50; subject: CCN1/C(=C/C(C)=O)Sc2ccc(O)cc21 [Indy, reference compound]
### Response > 10 µM
